biological target: UniProt:P56817; format: cell-based, SH-SY5Y
Sequence (P56817 whole entry): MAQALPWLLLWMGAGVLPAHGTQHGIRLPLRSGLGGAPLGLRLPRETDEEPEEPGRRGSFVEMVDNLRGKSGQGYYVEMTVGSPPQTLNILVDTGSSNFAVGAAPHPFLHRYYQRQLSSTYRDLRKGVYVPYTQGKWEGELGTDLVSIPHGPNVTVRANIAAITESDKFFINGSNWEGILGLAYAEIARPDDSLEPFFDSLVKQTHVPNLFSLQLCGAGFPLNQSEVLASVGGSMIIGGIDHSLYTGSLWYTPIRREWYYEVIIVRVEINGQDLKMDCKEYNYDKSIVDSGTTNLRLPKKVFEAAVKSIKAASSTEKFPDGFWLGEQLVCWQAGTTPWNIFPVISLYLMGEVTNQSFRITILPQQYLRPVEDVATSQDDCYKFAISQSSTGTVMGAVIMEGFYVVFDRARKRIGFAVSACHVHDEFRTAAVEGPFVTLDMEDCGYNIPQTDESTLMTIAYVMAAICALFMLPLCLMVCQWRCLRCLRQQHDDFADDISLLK
OBSERVATION TYPE: IC50 (nM)
Write down the numeric answer in nM and omit the unit.

Consider the reported IC50 for these compounds:
> print(dat)
                               given.smiles  numeric.result
1  CC(C)Oc1cc(C(=O)N[C@@H](Cc2ccccc2)[C@H](O)CN[C@@H](C)C(=O)NC2CCCCC2)cc(N2CCCC2=O)c1            1180
2  CC(C)Nc1cc(C(=O)N[C@@H](Cc2ccccc2)[C@H](O)CN[C@@H](C)C(=O)NC2CCCCC2)cc(N2CCCC2=O)c1             280
3  CCCOc1cc(C(=O)N[C@@H](Cc2ccccc2)[C@H](O)CN[C@@H](C)C(=O)NC2CCCCC2)cc(N2CCCC2=O)c1            1380
4  CCCc1cc(C(=O)N[C@@H](Cc2ccccc2)[C@H](O)CN[C@@H](C)C(=O)NC2CCCCC2)cc(N2CCCC2=O)c1             690

INPUT: Query (compound): CCOc1cc(C(=O)N[C@@H](Cc2ccccc2)[C@H](O)CN[C@@H](C)C(=O)NC2CCCCC2)cc(N2CCCC2=O)c1 ; field requested: IC50
OUTPUT: 1420

====

Listed next: entries and their corresponding IC50.
Target sequence: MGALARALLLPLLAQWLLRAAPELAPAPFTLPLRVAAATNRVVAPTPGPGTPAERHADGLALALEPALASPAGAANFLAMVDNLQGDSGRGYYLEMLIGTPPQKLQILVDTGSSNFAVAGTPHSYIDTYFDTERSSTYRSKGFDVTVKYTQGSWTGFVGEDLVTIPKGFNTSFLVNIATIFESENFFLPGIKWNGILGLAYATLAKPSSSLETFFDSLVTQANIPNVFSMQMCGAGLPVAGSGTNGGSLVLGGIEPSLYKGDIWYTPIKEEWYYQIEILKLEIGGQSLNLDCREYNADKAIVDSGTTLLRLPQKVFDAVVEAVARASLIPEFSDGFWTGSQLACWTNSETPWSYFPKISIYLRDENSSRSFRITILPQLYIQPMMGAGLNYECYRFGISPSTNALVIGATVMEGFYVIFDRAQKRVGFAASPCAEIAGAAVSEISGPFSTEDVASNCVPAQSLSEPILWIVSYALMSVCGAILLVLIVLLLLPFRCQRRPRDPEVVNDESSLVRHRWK
Write down the numeric answer in µM and omit the unit.

Consider the reported IC50 for these molecules:
> print(dat)
                               given.smiles  observation.type  numeric.result
1  CC(C)Oc1cc(C(=O)N[C@@H](Cc2ccccc2)[C@H](O)CN[C@@H](C)C(=O)NC2CCCCC2)cc(N2CCCC2=O)c1              IC50            4.79
2  CCCOc1cc(C(=O)N[C@@H](Cc2ccccc2)[C@H](O)CN[C@@H](C)C(=O)NC2CCCCC2)cc(N2CCCC2=O)c1              IC50            8.24

Turning now to a further molecule:
INPUT: Query (molecule): CCOc1cc(C(=O)N[C@@H](Cc2ccccc2)[C@H](O)CN[C@@H](C)C(=O)NC2CCCCC2)cc(N2CCCC2)c1 ; field requested: IC50
OUTPUT: 12.9

Where do these numbers come from? They come from ChEMBL document CHEMBL1143153.
